Listing of recorded % Inhibition by entry.
- targetDesc: T1, HA-GCN4 hAPRIL (amino acid residues 105-250) (human, UniProt O75888 105-250)
- T1 construct: Bought (R&D Systems); also called HA-tagged GCN4 human APRIL; HA-GCN4-huAPRIL; not shown: N-terminal HA tag; GCN4 isoleucine zipper oligomerization domain
- T1 sequence: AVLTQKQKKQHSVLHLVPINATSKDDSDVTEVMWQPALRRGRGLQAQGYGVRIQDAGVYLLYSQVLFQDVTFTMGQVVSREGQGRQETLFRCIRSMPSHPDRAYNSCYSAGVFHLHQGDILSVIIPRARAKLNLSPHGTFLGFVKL
- procedureDetails: blocking ELISA; blocked: human APRIL binding to human BCMA-Fc
- Design: concentration or dose not given beside the values
readoutKind: % Inhibition (%)

binder	readoutKind	unitInfo	comparator	testValue
monoclonal antibody 3125 (antibody, mouse IgG2, V domains shown) VH: QVQLQQSGAELVRPGASVTLSCKASGYTFTDYEMHWVKQTPVHGLEWIGAIDPETGGTAYNQRFKGKAILTTDKSSITAYMELRSLTSEDSAVYYCTRWNDGDYWGQGTTLTVSS VL: DVVMTQTPLSLSVTIGQPASISCKSSQSLLYSNGKTYLNWFQQRPGQSPKRLMYQVSKLDPGIPDRFSGSGSETDFTLKISRVEAEDLGLYYCLQGTYYPYTFGGGTKLEIK	% Inhibition	%	<	10
monoclonal antibody 2922 (antibody, mouse IgG2, V domains shown) VH: QVQLHQSGPELVKPGASVKLSCKTSGYTFTSYDVFWVKQRPGQGLEWIGWIYPRDSSTKYNEKFKGKATLTVDTSSSTAYMELHSLTSEDSAVYFCAKEGYDYDKRGFDYWGQGTTLTVSS VL: DIVLTQSPASLAVSLGQRAIISCKASQSVSFAGTNLMHWYQQRPGQQPKLLIYRASNLEPGVPTRFSGSGSRTDFTLNIHPVEEDDAATYYCQQSREYPWTFGGGTKLEIK	% Inhibition	%	=	97
monoclonal antibody 2621 (antibody, mouse IgG2, V domains shown) VH: EVQLQQSGAELVRPGSSVKMSCKTSGYTFTSYGINWVKQRPGQGLEWIGYIYIGNGYAEYNERFKGKATLTSDTSSSTAYMQLSSLTSEDSAIYFCALYYPWFTYWGQGTLVTVSA VL: DIQMTQSPASLSASVGDSVTITCRASENIYSYLAWYQQKQGKSPQLLVYNAKTLAEGVPSRFSGSGSGTQFSLKINSLQPEDFGNYYCQHHYDTPFTFGGGTKLEIK	% Inhibition	%	=	0
